This collection of values is drawn from patent US9828378B2.

- TARGET OR TEST SYSTEM: PI3K α (Homo sapiens (Human), UniProt P42336)
- Sequence (P42336 whole entry): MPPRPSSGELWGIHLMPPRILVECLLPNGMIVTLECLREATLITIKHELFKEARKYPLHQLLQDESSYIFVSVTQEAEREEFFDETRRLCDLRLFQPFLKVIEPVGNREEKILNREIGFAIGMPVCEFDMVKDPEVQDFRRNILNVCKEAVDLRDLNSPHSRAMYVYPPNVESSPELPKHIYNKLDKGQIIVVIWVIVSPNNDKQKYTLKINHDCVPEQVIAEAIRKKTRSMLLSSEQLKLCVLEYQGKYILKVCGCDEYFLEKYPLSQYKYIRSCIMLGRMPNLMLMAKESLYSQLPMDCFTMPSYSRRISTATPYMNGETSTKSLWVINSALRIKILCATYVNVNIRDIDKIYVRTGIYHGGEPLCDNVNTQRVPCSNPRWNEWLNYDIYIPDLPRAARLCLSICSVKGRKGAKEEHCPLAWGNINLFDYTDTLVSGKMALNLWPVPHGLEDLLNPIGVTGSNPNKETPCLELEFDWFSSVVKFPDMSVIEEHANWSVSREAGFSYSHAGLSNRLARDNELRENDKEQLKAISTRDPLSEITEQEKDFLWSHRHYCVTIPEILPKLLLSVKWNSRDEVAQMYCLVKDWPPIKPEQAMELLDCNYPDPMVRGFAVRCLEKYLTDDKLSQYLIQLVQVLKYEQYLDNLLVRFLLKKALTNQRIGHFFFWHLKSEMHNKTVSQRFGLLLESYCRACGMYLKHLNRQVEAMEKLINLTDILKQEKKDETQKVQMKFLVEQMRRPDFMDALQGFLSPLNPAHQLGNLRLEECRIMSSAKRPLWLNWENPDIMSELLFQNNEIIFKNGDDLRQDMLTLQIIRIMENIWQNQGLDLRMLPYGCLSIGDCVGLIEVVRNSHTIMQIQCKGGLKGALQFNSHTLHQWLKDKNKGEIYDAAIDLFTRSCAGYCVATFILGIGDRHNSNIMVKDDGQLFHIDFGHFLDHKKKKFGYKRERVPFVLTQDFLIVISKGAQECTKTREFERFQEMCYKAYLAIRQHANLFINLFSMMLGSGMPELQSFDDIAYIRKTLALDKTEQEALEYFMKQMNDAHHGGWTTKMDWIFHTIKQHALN
- Sequence (P27986 whole entry partner): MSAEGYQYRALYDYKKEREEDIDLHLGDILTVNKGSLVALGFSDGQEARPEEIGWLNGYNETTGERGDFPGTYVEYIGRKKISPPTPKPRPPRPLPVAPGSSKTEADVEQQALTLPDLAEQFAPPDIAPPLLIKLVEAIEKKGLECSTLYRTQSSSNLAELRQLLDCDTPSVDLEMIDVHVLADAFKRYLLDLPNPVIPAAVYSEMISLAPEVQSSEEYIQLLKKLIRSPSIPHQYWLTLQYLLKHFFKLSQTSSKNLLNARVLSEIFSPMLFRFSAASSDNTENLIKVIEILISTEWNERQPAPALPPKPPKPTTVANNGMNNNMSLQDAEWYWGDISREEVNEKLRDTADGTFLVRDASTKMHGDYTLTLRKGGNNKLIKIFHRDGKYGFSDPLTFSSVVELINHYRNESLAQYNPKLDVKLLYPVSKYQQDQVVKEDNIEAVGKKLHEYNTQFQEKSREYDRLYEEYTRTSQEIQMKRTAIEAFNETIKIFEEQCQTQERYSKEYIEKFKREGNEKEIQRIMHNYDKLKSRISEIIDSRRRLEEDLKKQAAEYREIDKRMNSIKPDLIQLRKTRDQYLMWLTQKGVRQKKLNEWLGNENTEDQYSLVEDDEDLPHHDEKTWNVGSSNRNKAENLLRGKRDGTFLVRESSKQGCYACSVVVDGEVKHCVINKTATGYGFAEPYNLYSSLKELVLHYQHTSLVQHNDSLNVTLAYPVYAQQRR
- ASSAY NOTES: PI3K α inhibition assay
- Type: biochemical
- SETUP CONDITIONS: Table 1; read-out: PI3K α IC50
pIC50: −log10 of the molar value.
PARAMETER MEASURED: pIC50

Task: API: value(readout=pIC50, system=PI3K α (Homo sapiens (Human), UniProt P42336)) for record CC(C)N1CCC(n2nc(-c3cc4cccc(O)c4[nH]3)c3c(N)ncnc32)CC1 [Compound 64]
Result: < 6.30

Task: API: value(readout=pIC50, system=PI3K α (Homo sapiens (Human), UniProt P42336)) for record CN1CCN(C2CC(n3nc(-c4cc5cc(O)ccc5[nH]4)c4c(N)ncnc43)C2)CC1 (centres unmarked) [Compound 52]
Result: < 6.30

Task: API: value(readout=pIC50, system=PI3K α (Homo sapiens (Human), UniProt P42336)) for record CC(=O)N1CCC(n2nc(-c3cc4cc(O)ccc4[nH]3)c3c(N)ncnc32)CC1 [Compound 30]
Result: < 6.30

Task: API: value(readout=pIC50, system=PI3K α (Homo sapiens (Human), UniProt P42336)) for record Nc1ncnc2c1c(-c1cc3cc(O)ccc3[nH]1)nn2CC(=O)N1CCOCC1 [Compound 34]
Result: < 6.30

Task: API: value(readout=pIC50, system=PI3K α (Homo sapiens (Human), UniProt P42336)) for record Nc1ncnc2c1c(-c1cc3cccc(Cl)c3[nH]1)nn2C1CCOCC1 [Compound 51]
Result: < 6.30

Task: API: value(readout=pIC50, system=PI3K α (Homo sapiens (Human), UniProt P42336)) for record Nc1ncnc2c1c(-c1cc3c(Cl)cccc3[nH]1)nn2C1CCOCC1 [Compound 48]
Result: < 6.30

Task: API: value(readout=pIC50, system=PI3K α (Homo sapiens (Human), UniProt P42336)) for record CC(C)N1CCC(n2nc(-c3cc4cc(O)ccc4[nH]3)c3c(N)ncnc32)CC1 [Compound 55]
Result: < 6.30

Task: API: value(readout=pIC50, system=PI3K α (Homo sapiens (Human), UniProt P42336)) for record Nc1ncnc2c1c(-c1cc3cc(O)ccc3[nH]1)nn2C1CCN(C(=O)C2CC2)CC1 [Compound 31]
Result: < 6.30

###

- TARGET OR TEST SYSTEM: PI3K α (Homo sapiens (Human))
- ASSAY NOTES: PI3K α inhibition assay
- Format: biochemical
- SETUP CONDITIONS: Table 1; read-out: PI3K α IC50
Please provide measured IC50 for the entries that follow.

Task: Data request, read-out IC50, for `Nc1ncnc2c1c(-c1cc3cc(O)ccc3[nH]1)nn2CCN1CCOCC1`
Result: > 0.5 µM

Task: Data request, read-out IC50, for `COc1cccc2cc(-c3nn(C4CCOCC4)c4ncnc(N)c34)[nH]c12`
Result: < 0.5 µM

Task: Data request, read-out IC50, for `CCOC(=O)Cn1nc(-c2cc3cc(O)ccc3[nH]2)c2c(N)ncnc21`
Result: > 0.5 µM

Task: Data request, read-out IC50, for `CC(C)n1nc(-c2cc3c(O)cccc3[nH]2)c2c(N)ncnc21`
Result: < 0.5 µM

###

- TARGET OR TEST SYSTEM: PI3K β (Homo sapiens (Human), UniProt P42338)
- Sequence (P42338 whole entry): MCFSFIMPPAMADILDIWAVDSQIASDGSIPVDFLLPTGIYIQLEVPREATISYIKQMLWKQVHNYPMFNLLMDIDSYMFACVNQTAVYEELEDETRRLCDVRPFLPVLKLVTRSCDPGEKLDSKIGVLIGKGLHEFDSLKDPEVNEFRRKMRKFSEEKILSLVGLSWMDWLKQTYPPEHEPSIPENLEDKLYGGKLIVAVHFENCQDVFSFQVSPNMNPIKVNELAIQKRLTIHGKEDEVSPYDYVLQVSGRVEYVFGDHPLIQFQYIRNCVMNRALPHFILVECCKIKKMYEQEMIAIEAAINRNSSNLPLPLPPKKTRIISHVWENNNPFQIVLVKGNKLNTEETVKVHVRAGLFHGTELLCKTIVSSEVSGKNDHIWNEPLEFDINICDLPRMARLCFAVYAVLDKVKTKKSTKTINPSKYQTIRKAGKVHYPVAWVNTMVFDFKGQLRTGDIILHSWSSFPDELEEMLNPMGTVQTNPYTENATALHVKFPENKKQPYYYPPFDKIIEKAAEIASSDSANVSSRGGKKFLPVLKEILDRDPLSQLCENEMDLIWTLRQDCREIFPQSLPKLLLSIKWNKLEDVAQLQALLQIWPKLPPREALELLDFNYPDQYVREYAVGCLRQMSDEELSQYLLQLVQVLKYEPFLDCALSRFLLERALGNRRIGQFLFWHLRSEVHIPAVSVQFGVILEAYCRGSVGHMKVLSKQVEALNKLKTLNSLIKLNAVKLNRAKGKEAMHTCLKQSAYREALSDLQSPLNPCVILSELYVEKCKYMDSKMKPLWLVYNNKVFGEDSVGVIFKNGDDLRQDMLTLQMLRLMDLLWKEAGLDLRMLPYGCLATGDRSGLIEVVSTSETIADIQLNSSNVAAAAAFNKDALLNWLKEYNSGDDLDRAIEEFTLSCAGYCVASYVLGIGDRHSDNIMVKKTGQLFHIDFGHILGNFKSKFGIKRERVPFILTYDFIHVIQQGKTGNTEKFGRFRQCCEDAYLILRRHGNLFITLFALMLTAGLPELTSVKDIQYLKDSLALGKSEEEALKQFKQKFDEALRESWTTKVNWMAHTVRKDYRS
- Sequence (P27986 whole entry partner): as the sequence (P27986 whole entry partner) above
- ASSAY NOTES: PI3K β inhibition assay
- Format: biochemical
- SETUP CONDITIONS: Table 1; read-out: PI3K β IC50
PARAMETER MEASURED: IC50

Task: Data request, read-out IC50, for `CC(=O)N1CCC(n2nc(-c3cc4cc(O)cc(Cl)c4[nH]3)c3c(N)ncnc32)CC1`
Result: > 500 nM

Task: Data request, read-out IC50, for Nc1ncnc2c1c(-c1cc3cc(O)ccc3[nH]1)nn2C1CC(N2CCOCC2)C1 (stereo not shown)
Result: > 500 nM

Task: Data request, read-out IC50, for `Nc1ncnc2c1c(-c1cc3cc(O)ccc3[nH]1)nn2C1CC(=O)C1`
Result: > 500 nM

Task: Data request, read-out IC50, for `Nc1ncnc2c1c(-c1cc3cc(O)cc(Cl)c3[nH]1)nn2C1CCOCC1`
Result: > 500 nM

Task: Data request, read-out IC50, for `CC(=O)N1CCC(n2nc(-c3cc4ccc(O)cc4[nH]3)c3c(N)ncnc32)CC1`
Result: > 500 nM

Task: Data request, read-out IC50, for `Nc1ncnc2c1c(-c1cc3cc(O)ccc3[nH]1)nn2C1CCOCC1`
Result: > 500 nM

Task: Data request, read-out IC50, for `Nc1ncnc2c1c(-c1cc3cccc(O)c3[nH]1)nn2C1CCOCC1`
Result: > 500 nM

Task: Data request, read-out IC50, for `CCOC(=O)Cn1nc(-c2cc3cc(O)ccc3[nH]2)c2c(N)ncnc21`
Result: > 500 nM

Task: Data request, read-out IC50, for `COc1ccc2cc(-c3nn(C4CCOCC4)c4ncnc(N)c34)[nH]c2c1`
Result: > 500 nM

Task: Data request, read-out IC50, for `CC(=O)N1CCC(n2nc(-c3cc4c(Cl)ccc(O)c4[nH]3)c3c(N)ncnc32)CC1`
Result: > 500 nM

Task: Data request, read-out IC50, for `COc1ccc(Cl)c2cc(-c3nn(C4CCOCC4)c4ncnc(N)c34)[nH]c12`
Result: > 500 nM

Task: Data request, read-out IC50, for `CC(C)N1CCC(n2nc(-c3cc4cccc(O)c4[nH]3)c3c(N)ncnc32)CC1`
Result: > 500 nM

Task: Data request, read-out IC50, for `CC(C)N1CCC(n2nc(-c3cc4c(Cl)ccc(O)c4[nH]3)c3c(N)ncnc32)CC1`
Result: > 500 nM

Task: Data request, read-out IC50, for `Nc1ncnc2c1c(-c1cc3cccc(Cl)c3[nH]1)nn2C1CCOCC1`
Result: > 500 nM

Task: Data request, read-out IC50, for `CC(C)n1nc(-c2cc3cccc(Cl)c3[nH]2)c2c(N)ncnc21`
Result: > 500 nM

Task: Data request, read-out IC50, for `Nc1ncnc2c1c(-c1cc3cc(O)ccc3[nH]1)nn2C1CCN(C(=O)C2CC2)CC1`
Result: > 500 nM

Task: Data request, read-out IC50, for `COc1cc(Cl)c2[nH]c(-c3nn(C4CCOCC4)c4ncnc(N)c34)cc2c1`
Result: > 500 nM

Task: Data request, read-out IC50, for CN1CCN(C2CCC(n3nc(-c4cc5cc(O)ccc5[nH]4)c4c(N)ncnc43)CC2)CC1 (stereo not shown)
Result: > 500 nM

Task: Data request, read-out IC50, for Nc1ncnc2c1c(-c1cc3cc(O)ccc3[nH]1)nn2C1CCC(N2CCOCC2)CC1 (stereo not shown)
Result: > 500 nM

Task: Data request, read-out IC50, for `Nc1ncnc2c1c(-c1cc3cc(O)ccc3[nH]1)nn2C1CCCCC1`
Result: > 500 nM

Task: Data request, read-out IC50, for Nc1ncnc2c1c(-c1cc3cc(O)ccc3[nH]1)nn2C1CC(O)C1 (stereo not shown)
Result: > 500 nM

Task: Data request, read-out IC50, for `Nc1ncnc2c1c(-c1cc3cccc(O)c3[nH]1)nn2C1CCN(C(=O)C2CC2)CC1`
Result: > 500 nM

Task: Data request, read-out IC50, for `CC(C)N1CCC(n2nc(-c3cc4cc(O)ccc4[nH]3)c3c(N)ncnc32)CC1`
Result: > 500 nM

Task: Data request, read-out IC50, for `Cc1nccn1CCn1nc(-c2cc3cc(O)ccc3[nH]2)c2c(N)ncnc21`
Result: > 500 nM

Task: Data request, read-out IC50, for CN1CCN(C2CC(n3nc(-c4cc5cc(O)ccc5[nH]4)c4c(N)ncnc43)C2)CC1 (stereo not shown)
Result: > 500 nM

Task: Data request, read-out IC50, for `Nc1ncnc2c1c(-c1cc3c(Cl)cccc3[nH]1)nn2C1CCOCC1`
Result: > 500 nM

Task: Data request, read-out IC50, for `COc1cccc2cc(-c3nn(C4CCOCC4)c4ncnc(N)c34)[nH]c12`
Result: > 500 nM

Task: Data request, read-out IC50, for `COc1cccc2cc(-c3nn(C4CCN(C(=O)C5CC5)CC4)c4ncnc(N)c34)[nH]c12`
Result: > 500 nM

###

- TARGET OR TEST SYSTEM: PI3K γ (Homo sapiens (Human), UniProt P48736)
- Sequence (P48736 whole entry): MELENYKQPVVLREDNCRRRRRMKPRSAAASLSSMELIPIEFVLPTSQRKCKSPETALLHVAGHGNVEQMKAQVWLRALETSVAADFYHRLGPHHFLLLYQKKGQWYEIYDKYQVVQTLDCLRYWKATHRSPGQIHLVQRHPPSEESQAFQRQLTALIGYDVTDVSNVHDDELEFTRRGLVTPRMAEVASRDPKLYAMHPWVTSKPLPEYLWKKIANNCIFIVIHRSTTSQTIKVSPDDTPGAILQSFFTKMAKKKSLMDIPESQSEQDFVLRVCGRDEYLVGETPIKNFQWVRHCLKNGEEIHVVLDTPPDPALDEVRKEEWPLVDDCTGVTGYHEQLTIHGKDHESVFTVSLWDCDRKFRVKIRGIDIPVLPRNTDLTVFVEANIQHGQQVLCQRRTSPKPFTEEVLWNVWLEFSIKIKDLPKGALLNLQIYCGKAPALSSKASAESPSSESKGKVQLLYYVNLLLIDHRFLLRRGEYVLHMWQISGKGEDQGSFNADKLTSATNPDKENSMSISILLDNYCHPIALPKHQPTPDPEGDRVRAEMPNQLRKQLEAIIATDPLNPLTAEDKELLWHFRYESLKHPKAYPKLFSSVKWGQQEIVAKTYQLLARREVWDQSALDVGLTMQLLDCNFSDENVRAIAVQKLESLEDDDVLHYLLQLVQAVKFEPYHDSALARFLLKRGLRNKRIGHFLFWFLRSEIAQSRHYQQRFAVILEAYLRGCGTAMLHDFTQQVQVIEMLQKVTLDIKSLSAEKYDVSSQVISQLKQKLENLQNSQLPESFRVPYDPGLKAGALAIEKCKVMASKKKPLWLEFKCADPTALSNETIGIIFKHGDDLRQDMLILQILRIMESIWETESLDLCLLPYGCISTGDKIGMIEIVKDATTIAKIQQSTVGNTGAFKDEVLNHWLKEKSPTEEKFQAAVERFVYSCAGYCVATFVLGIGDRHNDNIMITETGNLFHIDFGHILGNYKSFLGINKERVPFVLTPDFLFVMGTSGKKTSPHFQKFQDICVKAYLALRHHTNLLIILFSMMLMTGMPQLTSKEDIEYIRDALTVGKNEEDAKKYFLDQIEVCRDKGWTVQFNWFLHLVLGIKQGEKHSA
- ASSAY NOTES: PI3K γ inhibition assay
- Format: biochemical
- SETUP CONDITIONS: Table 1; read-out: PI3K γ IC50
Please provide measured IC50 for the entries that follow.

Task: Data request, read-out IC50, for `COc1cccc2cc(-c3nn(C4CCOCC4)c4ncnc(N)c34)[nH]c12`
Result: < 25 nM

Task: Data request, read-out IC50, for `CC(=O)N1CCC(n2nc(-c3cc4c(Cl)ccc(O)c4[nH]3)c3c(N)ncnc32)CC1`
Result: > 500 nM

Task: Data request, read-out IC50, for `COc1ccc(Cl)c2cc(-c3nn(C4CCOCC4)c4ncnc(N)c34)[nH]c12`
Result: > 500 nM

Task: Data request, read-out IC50, for `Nc1ncnc2c1c(-c1cc3cc(O)ccc3[nH]1)nn2Cc1cccnc1`
Result: > 500 nM
